Sourced from the supplement of paper PMC12350171

Test system: Bacteroides thetaiotaomicron
test.description: IC25 growth inhibition; higher = less potent

| molecule | IC25 growth inhibition |
| --- | --- |
| Nc1nc(=S)c2ncn([C@@H]3O[C@H](CO)[C@@H](O)[C@H]3O)c2[nH]1 | > 40 µM |
| C[C@]12CCC3=C4CCC(=O)C=C4CC[C@H]3[C@@H]1CC[C@@]2(O)CC#N | > 80 µM |
| Cc1c(OCC(F)(F)F)ccnc1C[S+]([O-])c1nc2ccccc2[nH]1 (stereo not drawn) | > 160 µM |
| CCOC(=O)C1=C(COCCN)NC(C)=C(C(=O)OC)C1c1ccccc1Cl (stereo not drawn) | ≤ 80 µM |
| CCC(C)(C)C(=O)O[C@H]1C[C@@H](C)C=C2C=C[C@H](C)[C@H](CC[C@@H]3C[C@@H](O)CC(=O)O3)[C@H]21 | ≤ 40 µM |
| N=C(N)c1ccc(OCCCCCOc2ccc(C(=N)N)cc2)cc1 [Pentamidine Isothionate] | ≤ 20 µM |
| CCN(CC)CCOc1ccc(C(=C(Cl)c2ccccc2)c2ccccc2)cc1 | ≤ 40 µM |
| CN(C)C(=O)C(CCN1CCC(O)(c2ccc(Cl)cc2)CC1)(c1ccccc1)c1ccccc1 [Loperamide] | ≤ 80 µM |

* * *

Test system: Com21 synthetic gut community
test.description: community biomass OD578 after 24 h drug treatment relative to untreated (fraction of untreated control); higher = more community growth
experimental.parameters: drug pretreatment concentration 160 µM; community: Com21 (Com20 + E. coli ED1a)
Listed here: items and their measured community biomass OD578.

| chem.smiles | community biomass OD578 |
| --- | --- |
| C[C@H]1c2cccc(O)c2C(=O)C2=C(O)[C@]3(O)C(=O)C(C(N)=O)=C(O)[C@@H](N(C)C)[C@@H]3[C@@H](O)[C@@H]21 | 0.064 |
| CC[C@H]1OC(=O)[C@H](C)[C@@H](O[C@H]2C[C@@](C)(OC)[C@@H](O)[C@H](C)O2)[C@H](C)[C@@H](O[C@@H]2O[C@H](C)C[C@H](N(C)C)[C@H]2O)[C@](C)(O)C[C@@H](C)C(=O)[C@H](C)[C@@H](O)[C@]1(C)O | 0.409 |
| CCc1oc2ccccc2c1C(=O)c1cc(Br)c(O)c(Br)c1 | 0.301 |

* * *

Listed here: items and their measured IC25 growth inhibition.
System: Clostridium saccharolyticum
test.description: IC25 growth inhibition; higher = less potent
readout.name: IC25 growth inhibition

| compound | readout.name | result |
| --- | --- | --- |
| CCC(C)(C)C(=O)O[C@H]1C[C@@H](C)C=C2C=C[C@H](C)[C@H](CC[C@@H]3C[C@@H](O)CC(=O)O3)[C@H]21 | IC25 growth inhibition | ≤ 80 µM |
| C[C@]1(Cn2ccnn2)[C@H](C(=O)O)N2C(=O)C[C@H]2S1(=O)=O | IC25 growth inhibition | ≤ 80 µM |
| COc1ccc2[nH]c([S+]([O-])Cc3ncc(C)c(OC)c3C)nc2c1 (stereo not given) | IC25 growth inhibition | > 160 µM |
| CCn1cc(C(=O)O)c(=O)c2ccc(C)nc21 | IC25 growth inhibition | > 160 µM |
| CC(=O)Oc1cccc2c1C(=O)c1c(OC(C)=O)cc(C(=O)O)cc1C2=O | IC25 growth inhibition | ≤ 2.5 µM |
| OC(Cn1cncn1)(Cn1cncn1)c1ccc(F)cc1F | IC25 growth inhibition | > 160 µM |
| O=C(Nc1ccc([N+](=O)[O-])cc1Cl)c1cc(Cl)ccc1O [Niclosamide] | IC25 growth inhibition | ≤ 20 µM |
| CC[C@H]1OC(=O)[C@H](C)[C@@H](O[C@H]2C[C@@](C)(OC)[C@@H](O)[C@H](C)O2)[C@H](C)[C@@H](O[C@@H]2O[C@H](C)C[C@H](N(C)C)[C@H]2O)[C@](C)(O)C[C@@H](C)C(=O)[C@H](C)[C@@H](O)[C@]1(C)O | IC25 growth inhibition | < 1.25 µM |
| O=C1CCc2ccc(OCCCCN3CCN(c4cccc(Cl)c4Cl)CC3)cc2N1 | IC25 growth inhibition | > 160 µM |
| O=C1NCCN1CCN1CCC(c2cn(-c3ccc(F)cc3)c3ccc(Cl)cc23)CC1 | IC25 growth inhibition | ≤ 40 µM |
| C[C@H]1c2cccc(O)c2C(=O)C2=C(O)[C@]3(O)C(=O)C(C(N)=O)=C(O)[C@@H](N(C)C)[C@@H]3[C@@H](O)[C@@H]21 | IC25 growth inhibition | < 1.25 µM |
| CCOC1O[C@H]([C@@H](COCc2ccccc2)OCc2ccccc2)[C@H](OCc2ccccc2)[C@H]1O (stereo not given in full) [Tribenoside] | IC25 growth inhibition | > 80 µM |
| CCOC(=O)N1CCC(=C2c3ccc(Cl)cc3CCc3cccnc32)CC1 | IC25 growth inhibition | > 160 µM |
| O=c1[nH]c(=O)n([C@H]2C[C@H](O)[C@@H](CO)O2)cc1F | IC25 growth inhibition | ≤ 160 µM |
| COc1cc(C(=O)NS(=O)(=O)c2ccccc2C)ccc1Cc1cn(C)c2ccc(NC(=O)OC3CCCC3)cc12 | IC25 growth inhibition | ≤ 80 µM |
